- tested-on: T1, human amylin receptor 3 (human, UniProt P30988 25-474; O60896 24-148)
- T1 sequence (looked up) 1: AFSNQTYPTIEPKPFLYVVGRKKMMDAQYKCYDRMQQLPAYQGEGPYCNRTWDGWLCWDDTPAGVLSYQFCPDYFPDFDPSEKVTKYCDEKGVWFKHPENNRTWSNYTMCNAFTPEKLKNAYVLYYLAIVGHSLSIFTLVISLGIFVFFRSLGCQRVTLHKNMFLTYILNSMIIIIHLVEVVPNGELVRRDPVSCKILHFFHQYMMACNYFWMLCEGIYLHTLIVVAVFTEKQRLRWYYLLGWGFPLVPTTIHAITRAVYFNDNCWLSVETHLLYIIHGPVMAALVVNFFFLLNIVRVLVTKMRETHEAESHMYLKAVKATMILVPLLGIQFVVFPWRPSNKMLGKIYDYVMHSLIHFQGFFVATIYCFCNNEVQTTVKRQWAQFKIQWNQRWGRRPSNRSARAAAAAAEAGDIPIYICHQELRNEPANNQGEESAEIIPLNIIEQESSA
- T1 sequence (looked up) 2: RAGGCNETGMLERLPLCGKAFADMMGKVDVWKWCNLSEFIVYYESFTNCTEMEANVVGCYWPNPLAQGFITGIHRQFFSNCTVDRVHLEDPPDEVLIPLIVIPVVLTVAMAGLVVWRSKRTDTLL
- protocol-text: cell-based or functional assay
Ends that are not written are not given here. Y‑shaped‑mPEG40KD = Y-shaped methoxy-PEG of 40 kDa attached to the Lys side chain; mPEG40KD = methoxy-PEG of 40 kDa
Reported Functional EC50, Human AMY3 is given for each of the following binders.
Quick reminder: number only, in nM, skip the unit.

binder="CNTATCATQRLANFLVHSSNNFGPK(Y‑shaped‑mPEG40KD)LPPTNVGSNTY-NH2 (ends and bridges not checked, also called Cmpd 79) [[K^26(Y-shaped-mPEG40KD)]-Cmpd 60]" recorded_value=1.74
binder="CNTATCATQRLANFLVHSSNNFGPIK(mPEG40KD)PPTNVGSNTY-NH2 (ends and bridges not checked, also called Cmpd 82) [[K^27(mPEG40KD)]-Cmpd 64]" recorded_value=0.2

Quick check: Functional EC50, Human AMY3 of CNTATCATQRLANFLVHSSK(mPEG 40 kDa)NFGPILPPTNVGSNTY-NH2 (ends and bridges not checked, also called Cmpd 76) [[K^21(mPEG40KD)]-Cmpd 59] ?
1.75
